test system: Amaranthus retroflexus; test: Post-emergence herbicidal action against AMARE; format: in vivo; settings: 5 g/ha, visual assessment about 3 weeks after treatment
Measured Post-emergence action against AMARE in % values are reported for all entries that follow.
The reply should contain only the number, in %.

Solved entries (count: 6):
{"chemical-smiles": "Cn1nnnc1NC(=O)c1ccc(C(F)(F)F)c(C(=O)n2cccn2)c1Cl", "unit-symbol": "%", "Post-emergence action against AMARE in %": 100}
{"chemical-smiles": "CCN(CC)C(=O)c1c(Br)ccc(C(=O)Nc2nnnn2CC)c1Cl", "unit-symbol": "%", "Post-emergence action against AMARE in %": 100}
{"chemical-smiles": "Cn1nnnc1NC(=O)c1ccc(C(F)(F)F)c(C(=O)N2CCCC2)c1Cl", "unit-symbol": "%", "Post-emergence action against AMARE in %": 100}
{"chemical-smiles": "CN(CC(F)F)C(=O)c1c(C(F)(F)F)ccc(C(=O)Nc2nnnn2C)c1Cl", "unit-symbol": "%", "Post-emergence action against AMARE in %": 100}
{"chemical-smiles": "CCN(C(=O)c1c(C(F)(F)F)ccc(C(=O)Nc2nnnn2CC)c1C)C1CC1", "unit-symbol": "%", "Post-emergence action against AMARE in %": 100}
{"chemical-smiles": "CCN(C)C(=O)c1c(C(F)F)ccc(C(=O)Nc2nnnn2C)c1Cl", "unit-symbol": "%", "Post-emergence action against AMARE in %": 100}

query: Tell me the measured Post-emergence action against AMARE in % of CCCn1nnnc1NC(=O)c1ccc(C(F)(F)F)c(C(=O)N(C)CC)c1Cl , please.
result: 100

query: Post-emergence action against AMARE in % for CCN(CC)C(=O)c1c(C(F)F)ccc(C(=O)Nc2nnnn2C)c1Cl ?
result: 100

query: Requested field: Post-emergence action against AMARE in %. Item: CN(C)C(=O)c1c(Br)ccc(C(=O)Nc2nnnn2C)c1Cl
result: 100

---

tested on: Alopecurus myosuroides; experiment: Pre-emergence herbicidal action against ALOMY; type: in vivo; details: 20 g/ha; visual score after 3 weeks vs untreated controls
recorded-endpoint: Pre-emergence action against ALOMY (%)
API: value field is a number in %; no unit string.

Look over these answered cases.
{"chemical-smiles": "CN(CC(F)F)C(=O)c1c(C(F)F)ccc(C(=O)Nc2nnnn2C)c1Cl", "assay-system": "Alopecurus myosuroides", "unit-symbol": "%", "Pre-emergence action against ALOMY": 90}
{"chemical-smiles": "Cn1nnnc1NC(=O)c1ccc(C(F)(F)F)c(C(=O)N2CCCC2)c1Cl", "assay-system": "Alopecurus myosuroides", "unit-symbol": "%", "Pre-emergence action against ALOMY": 80}
{"chemical-smiles": "CCn1nnnc1NC(=O)c1ccc(C(F)F)c(C(=O)N(C)C)c1Cl", "assay-system": "Alopecurus myosuroides", "unit-symbol": "%", "Pre-emergence action against ALOMY": 80}
{"chemical-smiles": "CCN(C(=O)c1c(C(F)(F)F)ccc(C(=O)Nc2nnnn2CC)c1Cl)C1CC1", "assay-system": "Alopecurus myosuroides", "unit-symbol": "%", "Pre-emergence action against ALOMY": 90}
{"chemical-smiles": "CN(C(=O)c1c(Cl)ccc(C(=O)Nc2nnnn2C)c1Cl)c1ccccc1", "assay-system": "Alopecurus myosuroides", "unit-symbol": "%", "Pre-emergence action against ALOMY": 80}
{"chemical-smiles": "CCn1nnnc1NC(=O)c1ccc(Br)c(C(=O)N(C)C)c1Cl", "assay-system": "Alopecurus myosuroides", "unit-symbol": "%", "Pre-emergence action against ALOMY": 90}
{"chemical-smiles": "CCN(C)C(=O)c1c(C(F)(F)F)ccc(C(=O)Nc2nnnn2C)c1Cl", "assay-system": "Alopecurus myosuroides", "unit-symbol": "%", "Pre-emergence action against ALOMY": 80}
{"chemical-smiles": "CN(C)C(=O)c1c(C(F)F)ccc(C(=O)Nc2nnnn2C)c1Cl", "assay-system": "Alopecurus myosuroides", "unit-symbol": "%", "Pre-emergence action against ALOMY": 90}

query: What value of measured Pre-emergence action against ALOMY is listed for CCN(CC)C(=O)c1c(Br)ccc(C(=O)Nc2nnnn2CC)c1Cl ?
result: 90
